Here the recorded IC50 is given for each entry.
# tested.target: PRMT5 (Homo sapiens, UniProt O14744)
# Construct: purchased Viva (custom protein)
# Sequence (O14744 whole entry): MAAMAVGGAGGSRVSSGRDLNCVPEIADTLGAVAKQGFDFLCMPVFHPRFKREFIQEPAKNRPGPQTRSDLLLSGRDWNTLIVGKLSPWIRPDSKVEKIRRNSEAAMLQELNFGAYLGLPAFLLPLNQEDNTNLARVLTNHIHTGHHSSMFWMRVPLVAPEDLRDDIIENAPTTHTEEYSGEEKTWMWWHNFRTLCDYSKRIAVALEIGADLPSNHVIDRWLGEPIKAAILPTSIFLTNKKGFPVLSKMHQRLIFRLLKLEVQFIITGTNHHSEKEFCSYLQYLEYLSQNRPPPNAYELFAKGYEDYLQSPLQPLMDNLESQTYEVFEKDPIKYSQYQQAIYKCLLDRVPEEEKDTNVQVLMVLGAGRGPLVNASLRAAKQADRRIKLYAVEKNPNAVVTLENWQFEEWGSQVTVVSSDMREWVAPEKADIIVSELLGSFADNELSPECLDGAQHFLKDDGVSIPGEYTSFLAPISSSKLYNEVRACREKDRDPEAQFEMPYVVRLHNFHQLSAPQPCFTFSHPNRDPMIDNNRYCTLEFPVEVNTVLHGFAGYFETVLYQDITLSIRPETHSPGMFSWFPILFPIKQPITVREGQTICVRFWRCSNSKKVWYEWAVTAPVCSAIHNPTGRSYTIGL
# Sequence (Q9BQA1 whole entry partner): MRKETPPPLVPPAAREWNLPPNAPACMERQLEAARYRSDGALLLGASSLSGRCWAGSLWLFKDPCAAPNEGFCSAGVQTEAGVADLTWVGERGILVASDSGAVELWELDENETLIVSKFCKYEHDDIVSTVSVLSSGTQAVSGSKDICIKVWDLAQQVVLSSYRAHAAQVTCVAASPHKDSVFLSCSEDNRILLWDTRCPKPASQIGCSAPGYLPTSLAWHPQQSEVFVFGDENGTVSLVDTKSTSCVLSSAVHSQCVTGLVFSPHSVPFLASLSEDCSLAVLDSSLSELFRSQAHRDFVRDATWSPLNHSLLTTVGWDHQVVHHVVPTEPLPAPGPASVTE
# assay.name: PRMT5 IC50 assay with no cofactor
# Assay type: biochemical
# test.conditions: read-out: No Co-factor IC50

>  <structure>
CCCN(C)c1cc(C(=O)NC[C@H](O)CN2CCc3cc(OCc4cnco4)ccc3C2)cc(NC2CCC2)n1

>  <IC50>
0.5 to 5 µM

$$$$

Can you share its IC50? I mean this compound: Cc1ncoc1COc1ccc2c(c1C)CCN(C[C@@H](O)CNC(=O)c1cc(NC3COC3)nc(N3CCCCC3)n1)C2
≥ 5 µM

Consider next the compound Cc1c(OCc2cnco2)ccc2c1CCN(C[C@@H](O)CNC(=O)c1cc(NC3CCC3)ncn1)C2 in the same way.
≥ 5 µM

Quick one: Cc1ncoc1COc1ccc2c(c1)CCN(C[C@@H](O)CNC(=O)c1ccc(OC3CCN(Cc4ccncc4)CC3)cc1)C2
0.5 to 5 µM

What do you have for O=C(NC[C@H](O)CN1CCc2c(ccc(OCc3cnco3)c2Cl)C1)c1cc(NC2CCC2)ncc1F ?
≥ 5 µM

And then Cc1ncoc1COc1ccc2c(c1Br)CCN(C[C@@H](O)CNC(=O)c1cccc(NC3COC3)c1)C2 , what is it?
≥ 5 µM

Then what about the compound CC(C)N1CCN(c2nc(NC3COC3)cc(C(=O)NC[C@H](O)CN3CCc4c(ccc(OCc5cnco5)c4Cl)C3)n2)CC1 ?
0.5 to 5 µM

###

# tested.target: PRMT5 (Homo sapiens)
# Construct: purchased Viva (custom protein)
# assay.name: PRMT5 IC50 assay with no cofactor
# Assay type: biochemical
# test.conditions: read-out: No Co-factor IC50
pIC50: −log10 of the molar value.
measured.parameter: pIC50

# annotated cases, reported pIC50 shown
>  <molecule>
CC(=O)N1CCC(Nc2cc(C(=O)NC[C@H](O)CN3CCc4c(ccc(OCc5ccnn5C)c4C)C3)ncn2)CC1 [Compound 203]

>  <pIC50>
≤ 5.30

$$$$
>  <molecule>
CC(=O)N1CCC(Nc2cc(C(=O)NC[C@H](O)CN3CCc4cc(OCc5conc5C)ccc4C3)ncn2)CC1 [Compound 233]

>  <pIC50>
≤ 5.30

$$$$
>  <molecule>
O=C(NC[C@H](O)CN1CCc2c(ccc(OCc3cnco3)c2Cl)C1)c1ccnc(NC2CCC(F)(F)C2)c1 (some centres unmarked) [Compound 316]

>  <pIC50>
≤ 5.30

$$$$
>  <molecule>
CC1(CCC(=O)N2CCC(Nc3cc(C(=O)NC[C@H](O)CN4CCc5cc(OCc6cnco6)ccc5C4)ncn3)CC2)N=N1 [Compound 363]

>  <pIC50>
5.30 to 6.30

$$$$
>  <molecule>
Cc1ncoc1COc1ccc2c(c1Cl)CCN(C[C@@H](O)CNC(=O)c1cccc(NC3CCC3)c1)C2 [Compound 344]

>  <pIC50>
≤ 5.30

$$$$
>  <molecule>
CC(=O)N1CCC(Nc2cc(C(=O)NC[C@H](O)CN3CCc4cc(OCc5ocnc5C)ccc4C3)ccn2)C(C)C1 (some centres unmarked) [Compound 637]

>  <pIC50>
≤ 5.30

$$$$
>  <molecule>
O=C(NC[C@H](O)CN1CCc2cc(OCc3c[nH]nn3)ccc2C1)c1ccnc(NC2CCC2)c1 [Compound 207]

>  <pIC50>
≤ 5.30

$$$$
>  <molecule>
CC(=O)N1CC(Nc2cc(C(=O)NC[C@H](O)CN3CCc4cc(OCc5cnco5)ccc4C3)nc(C(C)(C)C)n2)C1 [Compound 379]

>  <pIC50>
5.30 to 6.30

$$$$
>  <molecule>
O=C(NC[C@H](O)CN1CCc2cc(OCc3cnco3)ccc2C1)c1cc(NC2CCC2)ncc1F [Compound 334]

>  <pIC50>
≤ 5.30

$$$$
>  <molecule>
O=C(NC[C@H](O)CN1CCc2cc(OCc3cnco3)c(Cl)cc2C1)c1ccnc(NC2CCC2)c1 [Compound 281]

>  <pIC50>
≤ 5.30

$$$$

Name the reported pIC50 value associated with the molecule Cc1c(OCc2cnco2)ccc2c1CCN(C[C@@H](O)CNC(=O)c1cc(NC3CCCC3)ncn1)C2 [Compound 393]
≤ 5.30

Try O=C(NC[C@H](O)CN1CCc2cc(OCc3cnco3)ccc2C1)c1cc(NC2CCC2)ncc1Cl [Compound 284] next.
≤ 5.30

Do the same for Cc1ncoc1COc1ccc2c(c1)CCN(C[C@@H](O)CNC(=O)c1cc(NC3CCC3)nc(OCCN(C)C)c1)C2 [Compound 406] please
5.30 to 6.30

Here is the next molecule: CC(=O)N1CCC(Nc2cc(C(=O)NC[C@H](O)CN3CCc4c(ccc(OCc5conc5C)c4Cl)C3)ncn2)CC1 [Compound 251]
≤ 5.30
